Test system: HOP-18 NSCLC
Assay name: NCI tumour cell line growth inhibition, 48 h

Compound: CCc1ccccc1N1CCN(C(=O)c2cc(OC)c(OC)c(OC)c2)CC1
TGI: > 91.9 µM

Compound: Cc1cc(NC(=O)NC(=O)c2ccccc2N)ccc1Oc1ncc(Br)cn1
TGI: > 78 µM

Compound: O=C1C=C[C@@]23C[C@@H](Nc4c(O)c5c6c(c42)=NCCC=6C=N5)SC3=C1
TGI: 28.1 µM

Compound: Cc1cccc(NC(=O)c2cc3cc(N=Nc4ccccc4Cl)ccc3oc2=O)c1
TGI: > 100 µM

Compound: Fc1cccc2cc3ccc4cccc5ccc(c12)c3c45
TGI: 12.8 µM

Compound: CN(C)CCNC(=O)c1ccc(C(=O)NCCN(C)C)c2nc3ccccc3cc12
TGI: 25.4 µM

Compound: COc1cc(Cn2c(=S)ss/c2=N\C(=S)N(C)C)cc(OC)c1OC
TGI: > 100 µM

Compound: CCCCCCCCC(=O)N(C)C1C2CN3CCC(O2)C13 (stereo not drawn)
TGI: > 100 µM

Compound: CC(=O)Nc1ccc(/C=N\N2C(=O)c3ccccc3C2=O)cc1
TGI: > 100 µM

Compound: c1ccc(C(c2ccccc2)[P+](c2ccccc2)(c2ccccc2)c2ccccc2)cc1
TGI: 2.74 µM

Compound: CCn1c2ccccc2c2ccc3c(c21)C(=O)c1ccccc1C3=O
TGI: > 100 µM

Compound: CN(C(=O)c1ccc(Cl)cc1)C(=S)N1CCN(c2ccccn2)CC1
TGI: > 100 µM

Compound: COc1ccc(N(C)Sc2ccccc2)cc1
TGI: > 100 µM

----------
System: 786-0 renal
Assay name: NCI tumour cell line growth inhibition, 48 h
Listing of recorded TGI by entry.

Molecule: COc1ccc(-c2cc(-c3ccc(Nc4ccnc5cc(Cl)ccc45)cc3)nc(N)c2C#N)cc1
Tested system: 786-0 renal
TGI: > 100 µM
--
Molecule: CCc1ccccc1N1CCN(C(=O)c2cc(OC)c(OC)c(OC)c2)CC1
Tested system: 786-0 renal
TGI: > 100 µM
--
Molecule: Cc1ccc2cc3c(ccc4ccccc43)c3c2c1CC3
Tested system: 786-0 renal
TGI: > 100 µM
--
Molecule: COc1ccc(N=Nc2ccc3oc(=O)c(C(=O)Nc4ccccc4)cc3c2)cc1
Tested system: 786-0 renal
TGI: > 10 µM
--
Molecule: COc1ccc(C(=O)COc2cccc(/C=C3\CSc4ccccc4C3=O)c2)cc1
Tested system: 786-0 renal
TGI: 3.69 µM
--
Molecule: CC(C)[C@@]12C[C@@H](OC(=O)COC(=O)/C=C/c3ccccc3)[C@@](C)(O1)[C@@H]1CC[C@@H](C)[C@H]1[C@@H]2OC(=O)/C=C/c1ccccc1
Tested system: 786-0 renal
TGI: > 100 µM
--
Molecule: CN=CN(C)c1c2ccccc2nc2ccccc12
Tested system: 786-0 renal
TGI: > 100 µM
--
Molecule: c1cc(CCN2CCCCC2)ccn1
Tested system: 786-0 renal
TGI: > 100 µM
--
Molecule: CCn1c2ccccc2c2ccc3c(c21)C(=O)c1ccccc1C3=O
Tested system: 786-0 renal
TGI: > 100 µM
--
Molecule: O=C(O)CCC(NC(=O)c1ccc(Nc2cnc3ccc(C(F)(F)F)cc3n2)cc1)C(=O)O (stereo not given)
Tested system: 786-0 renal
TGI: > 100 µM

----------
Tested on: TK-10 renal
Assay name: NCI tumour cell line growth inhibition, 48 h

Molecule: O=C(c1ccco1)n1c2ccc(Br)cc2c2nc3ccccc3nc21
Comparison sign: >
TGI [µM]: 100
--
Molecule: CC(=O)OC1COC(n2nc(/C=C/c3ccc(Cl)cc3)c(=O)n(/N=C/c3ccccc3)c2=S)C(OC(C)=O)C1OC(C)=O (centres undefined)
Comparison sign: >
TGI [µM]: 100
--
Molecule: O=C(c1ccccc1)[C@H]1Nc2ccc(Cl)cc2[C@H]2OCCC[C@@H]12
Comparison sign: =
TGI [µM]: 64.6
--
Molecule: Cc1nn(-c2ccccc2)c2c1CC(=O)Nc1ccccc1-2
Comparison sign: =
TGI [µM]: 92.2

----------
Tested on: RXF 393 renal
Assay name: NCI tumour cell line growth inhibition, 48 h
Measured property: log10 TGI (log10 of the value in µM)

Smiles data: COc1ccc(-c2cc(-c3ccccc3)nc(N3CCN(CCNc4ccnc5cc(Cl)ccc45)CC3)n2)cc1
log10 TGI: 0.36
//
Smiles data: CCN1CCN(CC(=O)Nc2nc3ccc(NCc4ccc(Cl)cc4)cc3s2)CC1
log10 TGI: 0.48
//
Smiles data: C[C@H]1[C@H](C)CC[C@]2(C(=O)N3CCN(C)CC3)CC[C@]3(C)C(=CC[C@@H]4[C@@]5(C)C/C(=C/c6cccnc6)C(=O)C(C)(C)[C@@H]5CC[C@]43C)[C@H]12
log10 TGI: 0.41
//
Smiles data: C=CCNCCCN1C(=O)c2ccc3c4c(ccc(c24)C1=O)C(=O)N(CCCNCC=C)C3=O
log10 TGI: 0.18
//
Smiles data: CC1=C(O)C(=O)C[C@]2(C)[C@H]3CC=C4[C@@H]5CC(C)(C)CC[C@@H]5C(=O)[C@H](O)[C@@]4(C)[C@]3(C)CC[C@@H]12
log10 TGI: 1.58
//
Smiles data: O=C1C=C[C@@]23C[C@@H](Nc4c(O)c5c6c(c42)=NCCC=6C=N5)SC3=C1
log10 TGI: 0.94

----------
Listing of recorded log10 TGI by entry.
Test system: COLO 205 colon
Assay name: NCI tumour cell line growth inhibition, 48 h
Measured property: log10 TGI (log10 of the value in µM)

Compound: c1ccc(C(c2ccccc2)[P+](c2ccccc2)(c2ccccc2)c2ccccc2)cc1
Measured property: log10 TGI
Measured result: 0.08
//
Compound: O=C1C=C[C@@]23C[C@@H](Nc4c(O)c5c6c(c42)=NCCC=6C=N5)SC3=C1
Measured property: log10 TGI
Measured result: 0.47
//
Compound: C=C(C(=O)O)C1CCC(CC/C=C(\C)CC/C=C(\C)CCC=C(C)C)CO1 (stereo not given)
Measured property: log10 TGI
Measured result: 1.44
//
Compound: N=c1c2c(-c3ccccc3)c(-c3ccccc3)n(Cc3ccccc3)c2ncn1CCCO
Measured property: log10 TGI
Measured result: 0.31
//
Compound: C/C([O-])=C1\Cc2ccccc2C1=O.C/C([O-])=C1\Cc2ccccc2C1=O.CC[O-].CC[O-].[Ti+4]
Measured property: log10 TGI
Measured result: 1.83

----------
System: 786-0 renal
Assay name: NCI tumour cell line growth inhibition, 48 h
Listing of recorded GI50 by entry.

Smiles data: O=C(/C=C/c1cccs1)c1ccc(Nc2nc(Nc3ccc(F)cc3)nc(Nc3ccc(F)cc3)n2)cc1
GI50: 38.5 µM
//
Smiles data: Cc1ccc(/C=C2/SC(Nc3nc(-c4nc(NC5=NC(=O)/C(=C\c6ccc(C)cc6)S5)sc4C)c(C)s3)=NC2=O)cc1
GI50: 0.487 µM
//
Smiles data: CN(C)c1ccc(-c2cc(-c3ccc(Nc4nc(Nc5ccccc5)nc(Nc5ccc(Cl)cc5)n4)cc3)nc(N)n2)cc1
GI50: 6.32 µM
//
Smiles data: C=CC1=C[C@@H]2[C@@H]3O[C@]4(CC[C@H](O4)[C@@H](C)C[C@@H](O)C3=O)C[C@H](O)C3=NCC[C@@]32CC1
GI50: < 0.00333 µM
//
Smiles data: CN1CCN(c2nc(NCCCCNc3ccnc4cc(Cl)ccc34)c3ccccc3n2)CC1
GI50: 1.65 µM
//
Smiles data: Cn1c(=O)c(Oc2ccc(F)cc2F)cc2cnc(NC(CO)CO)nc21
GI50: > 25 µM

----------
Test system: NCI-H23 lung
Assay name: NCI tumour cell line growth inhibition, 48 h
Listing of recorded TGI by entry.
Measured property: TGI

Compound: N#Cc1c2cccnc2c2nnc3cc(Cl)c(Cl)cc3n12
Measured result: > 100 µM

Compound: O=C1Nc2ccccc2C1Cc1ccc([N+](=O)[O-])cc1 (stereo not drawn)
Measured result: > 100 µM

Compound: O=C(O)CSCC(=O)O
Measured result: > 100 µM

Compound: CN(C)c1ccc(-c2cc(-c3ccc(Nc4nc(Nc5ccccc5)nc(Nc5ccc(Cl)cc5)n4)cc3)nc(N)n2)cc1
Measured result: 53.5 µM

Compound: Cn1ccc2c(c1=O)C(=O)c1nccc3c1c-2nc1ccccc13
Measured result: 2.8 µM

Compound: C(=Nc1ccc(-c2cc(-c3ccccc3)nc3ccc4ccccc4c23)cc1)c1ccccc1
Measured result: > 100 µM

Compound: O=C(c1ccccc1)[C@H]1Nc2ccc(Cl)cc2[C@H]2OCCC[C@@H]12
Measured result: 52 µM

Compound: O=C1c2ccc3c4c5ccc(c24)C(=O)N1CCCOCCCCOCCCNCc1ccc(cc1)CNCCCOCCCCOCCCN(C3=O)C5=O
Measured result: 1.81 µM

Compound: Nc1ccc2nc3ccc(N)cc3[n+](-c3ccccc3)c2c1
Measured result: > 100 µM

Compound: Cc1nn(-c2ccccc2)c2c1CC(=O)Nc1ccccc1-2
Measured result: > 100 µM

Compound: OCC(O)C(OC1OC(CO)C(O)C(O)C1O)c1nn(-c2ccccc2)c2nc3cc(Cl)c(Cl)cc3cc12 (stereo not drawn)
Measured result: > 100 µM

Compound: O=Cc1cn(Cc2cccc(Cl)c2)c2ccccc12
Measured result: 26.9 µM

Compound: NC1=C(Br)C(=O)c2ncccc2C1=O
Measured result: 0.668 µM

Compound: COc1c(OC)c(N)c2cc(C)c(=O)c(C)cc2c1N
Measured result: > 100 µM

Compound: NC(=NC1CCCCCCC1)c1ccc(N2CCN(c3ccc(C(N)=NC4CCCCCCC4)cc3)CC2)cc1
Measured result: 45.8 µM

Compound: CN(C)CCNC(=O)c1ccc(C(=O)NCCN(C)C)c2nc3ccccc3cc12
Measured result: 3.8 µM

Compound: CN(CC(=O)O)c1ccc(/C=C/c2ccnc3ccccc23)cc1
Measured result: > 100 µM

Compound: COc1cc(Cn2c(=S)ss/c2=N\C(=S)N(C)C)cc(OC)c1OC
Measured result: 50.6 µM

Compound: CCc1ccccc1N1CCN(C(=O)c2cc(OC)c(OC)c(OC)c2)CC1
Measured result: 23.3 µM

Compound: C=C(C)C(=O)OC1CC2=CC(CC3(C)OC3C3OC(=O)C(=C)C13)OC2=O (stereo not drawn)
Measured result: 30.9 µM

Compound: CN(C)CCCNc1ncnc2nc[nH]c12
Measured result: > 100 µM

Compound: COC(=O)C1CC=C(SC(=O)c2ccccc2)N1C(=O)c1ccccc1 (stereo not drawn)
Measured result: > 100 µM

Compound: CCn1c2ccccc2c2ccc3c(c21)C(=O)c1ccccc1C3=O
Measured result: > 100 µM

Compound: O=C(/C=C/c1cccs1)c1ccc(Nc2nc(Nc3ccc(F)cc3)nc(Nc3ccc(F)cc3)n2)cc1
Measured result: 71.2 µM

Compound: O=C1C=C[C@@]23C[C@@H](Nc4c(O)c5c6c(c42)=NCCC=6C=N5)SC3=C1
Measured result: 7.01 µM

Compound: C=CC1=C[C@@H]2[C@@H]3O[C@]4(CC[C@H](O4)[C@@H](C)C[C@@H](O)C3=O)C[C@H](O)C3=NCC[C@@]32CC1
Measured result: < 0.00333 µM

Compound: O=C(O)CCC(NC(=O)c1ccc(Nc2cnc3ccc(C(F)(F)F)cc3n2)cc1)C(=O)O (stereo not drawn)
Measured result: > 100 µM

Compound: COc1cc(/C=C/C(=O)OC2C(O)C3CC(OC(=O)c4cc(OC)c(OC)c(OC)c4)CC2N3C)cc(OC)c1OC (stereo not drawn)
Measured result: > 50 µM

Compound: O=C1/C(=C/c2ccc([N+](=O)[O-])o2)Oc2ccc(Br)cc21
Measured result: 23.1 µM

Compound: COc1ccc2oc(=O)cc(C)c2c1
Measured result: > 100 µM

Compound: Nc1ccc(C(=O)NN2C(=O)C(Cl)C2c2cc(Br)ccc2O)cc1 (stereo not drawn)
Measured result: > 100 µM

Compound: COc1ccc(-c2cc(-c3ccc(Nc4ccnc5cc(Cl)ccc45)cc3)nc(N)c2C#N)cc1
Measured result: > 100 µM

Compound: NC1CC(N)c2c(Br)sc(Br)c21 (stereo not drawn)
Measured result: > 100 µM

Compound: N#Cc1c(N)nc(N2CCOCC2)c(C#N)c1-c1ccc(Cl)cc1
Measured result: > 100 µM

Compound: O/N=C/c1cc2c(cc1Br)OCO2
Measured result: > 100 µM

Compound: CN1CCN(c2cc3c(cc2F)c(=O)c(C(=O)O)cn3C2CC2)CC1CC#N (stereo not drawn)
Measured result: > 100 µM

Compound: CCOC(=O)c1cc(C2CCN(CC(C)CC)C2=S)c(-c2cc(C)no2)[nH]1 (stereo not drawn)
Measured result: > 100 µM

Compound: COc1cc(Cl)cc(N(O)C(C)=O)c1OCc1ccccc1
Measured result: > 100 µM
